# TEST DETAILS: Plasma pharmacokinetics after a single subcutaneous administration of LEN
# Assay type: in vivo, rhesus macaques
# MEASUREMENT CONDITIONS: male, Indian-origin (outbred), rhesus monkey, plasma, subcutaneous, 20 mg/kg, Plasma LEN (Mean), 20 mg/kg sc, week 16 post dose
ENDPOINT LABEL: concentration at 16 week (nM)

given_smiles=CC(C)(C#Cc1ccc(-c2ccc(Cl)c3c(NS(C)(=O)=O)nn(CC(F)(F)F)c23)c([C@H](Cc2cc(F)cc(F)c2)NC(=O)Cn2nc(C(F)(F)F)c3c2C(F)(F)[C@@H]2C[C@H]32)n1)S(C)(=O)=O endpoint_label="concentration at 16 week" units=nM result_number=4.07
